Each entry below carries its reported pKd.
- Study system: T1, soluble human FcRn (shFcRn) (human, UniProt P55899 24-297; P61769 21-119)
- T1 construct: Biotinylated for the ELISA, amine-coupled to a CM5 chip for SPR; also called biotinylated shFcRn
- T1 sequence (P55899 24-297 limits assumed, chain 1 of 2): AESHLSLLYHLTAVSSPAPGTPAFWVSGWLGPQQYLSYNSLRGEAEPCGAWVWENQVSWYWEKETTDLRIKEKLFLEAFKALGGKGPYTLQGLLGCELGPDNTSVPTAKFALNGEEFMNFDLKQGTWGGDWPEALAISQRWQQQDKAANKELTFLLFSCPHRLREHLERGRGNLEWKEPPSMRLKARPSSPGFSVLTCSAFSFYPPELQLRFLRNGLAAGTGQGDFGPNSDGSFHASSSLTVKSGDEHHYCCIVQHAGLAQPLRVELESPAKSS
- T1 sequence (P61769 21-119 limits assumed, chain 2 of 2): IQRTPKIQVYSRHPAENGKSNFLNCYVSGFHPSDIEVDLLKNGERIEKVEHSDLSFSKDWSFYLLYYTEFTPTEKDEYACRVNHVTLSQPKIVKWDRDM
- Assay explanation: SPR pH 6
pKd: −log10 of the molar value. Bridge positions count the residues as written; N and C are the ends. Square brackets hold non-standard residues; d marks the D form. Ends that are not written are not given here. His(Me) = mono-methylated histidine; His(1-Me) = 1-methylhistidine; NMeL = CN[C@@H](CC(C)C)C(=O)O; Pen = CC(C)(S)[C@H](N)C(=O)O; Sar = CNCC(=O)O

{"Binder": "RF[Pen]TG[His(Me)]FGGLYPC-NH2 (disulfide 3-13) [Peptide No. 259]", "pKd": 6.85}
{"Binder": "RF[Pen]TGRFG[Sar][NMeL]YPC-NH2 (disulfide 3-13; N-terminus assumed; SMILES CC(C)C[C@H]1C(=O)N[C@@H](Cc2ccc(O)cc2)C(=O)N2CCC[C@H]2C(=O)N[C@H](C(N)=O)CSSC(C)(C)[C@H](NC(=O)[C@H](Cc2ccccc2)NC(=O)[C@@H](N)CCCNC(=N)N)C(=O)N[C@@H]([C@@H](C)O)C(=O)NCC(=O)N[C@@H](CCCNC(=N)N)C(=O)N[C@@H](Cc2ccccc2)C(=O)NCC(=O)N(C)CC(=O)N1C) [Peptide No. 256]", "pKd": 6.30}
{"Binder": "QRF[Pen]TG[His(1-Me)]FGGLYPCNGP-NH2 (disulfide 4-14) [Peptide No. 138]", "pKd": 6.13}
